target: WDR5 S218F (Homo sapiens, UniProt P61964, S218F); assay: Biolayer interferometry (BLI), S218F; assay type: binding; details: pH 7.5, read-out: koff (dissociation rate constant)
No end group written: not given here.
Examples of substances with documented koff follow.
Recorded endpoint: koff (s⁻¹)

>>> recorded_value("EHQTGSARSEGYYP-NH2 [SETd1AWin]")
0.046
>>> recorded_value("VNPTGCARSEPKMS-NH2 [MLL3Win]")
0.021
>>> recorded_value("INPTGCARSEPKIL-NH2 [MLL2Win]")
0.025
>>> recorded_value("LNPHGAARAEVYLS-NH2 [MLL4Win]")
0.071

----------
target: WDR5 S175L (Homo sapiens, UniProt P61964, S175L); assay: Biolayer interferometry (BLI), S175L; format: binding; details: pH 7.5, read-out: koff (dissociation rate constant)
No end group written: not given here.
Recorded endpoint: koff

>>> recorded_value("LNPHGAARAEVYLS-NH2 [MLL4Win]")
"0.13 s⁻¹"
>>> recorded_value("VNPTGCARSEPKMS-NH2 [MLL3Win]")
"0.016 s⁻¹"
>>> recorded_value("LNPHGSARAEVHLS-NH2 [MLL1Win]")
"> 1 s⁻¹"
>>> recorded_value("INPTGCARSEPKIL-NH2 [MLL2Win]")
"0.0063 s⁻¹"
>>> recorded_value("EHQTGSARSEGYYP-NH2 [SETd1AWin]")
"0.089 s⁻¹"

----------
target: WDR5 P216L (Homo sapiens, UniProt P61964, P216L); test: Biolayer interferometry (BLI), P216L; assay type: binding; details: pH 7.5, read-out: kon (association rate constant)
No end group written: not given here.
Recorded endpoint: kon (M⁻¹ s⁻¹)

>>> recorded_value("VNPTGCARSEPKMS-NH2 [MLL3Win]")
53000
>>> recorded_value("LNPHGAARAEVYLS-NH2 [MLL4Win]")
19000
>>> recorded_value("INPTGCARSEPKIL-NH2 [MLL2Win]")
56000
>>> recorded_value("EHQTGSARSEGYYP-NH2 [SETd1AWin]")
86000

----------
biological target: WDR5 D172A (Homo sapiens, UniProt P61964, D172A); experiment: Biolayer interferometry (BLI), D172A; type: binding
pKd: −log10 of the molar value. No end group written: not given here.
Recorded endpoint: pKd

>>> recorded_value("INPTGCARSEPKIL-NH2 [MLL2Win]")
6.62
>>> recorded_value("EHQTGSARSEGYYP-NH2 [SETd1AWin]")
6.05
>>> recorded_value("LNPHGAARAEVYLS-NH2 [MLL4Win]")
5.85
>>> recorded_value("VNPTGCARSEPKMS-NH2 [MLL3Win]")
6.85

----------
molecular target: WDR5 D172A (Homo sapiens, UniProt P61964, D172A); experiment: Biolayer interferometry (BLI), D172A; assay type: binding; settings: pH 7.5, read-out: kon (association rate constant)
No end group written: not given here.
Examples of substances with documented kon follow.
Recorded endpoint: kon (M⁻¹ s⁻¹)

>>> recorded_value("VNPTGCARSEPKMS-NH2 [MLL3Win]")
65000
>>> recorded_value("LNPHGAARAEVYLS-NH2 [MLL4Win]")
37000
>>> recorded_value("EHQTGSARSEGYYP-NH2 [SETd1AWin]")
130000
>>> recorded_value("INPTGCARSEPKIL-NH2 [MLL2Win]")
57000

----------
target: WDR5 S175L (Homo sapiens, UniProt P61964, S175L); assay: Steady-state fluorescence polarization (FP), S175L; type: binding
pKd: −log10 of the molar value. No end group written: not given here.
Examples of substances with documented pKd follow.
Recorded endpoint: pKd

>>> recorded_value("VNPTGCARSEPKMS-NH2 [MLL3Win]")
7.64
>>> recorded_value("EHQTGSARSEGYYP-NH2 [SETd1AWin]")
7.04
>>> recorded_value("LNPHGSARAEVHLS-NH2 [MLL1Win]")
5.32
>>> recorded_value("INPTGCARSEPKIL-NH2 [MLL2Win]")
7.96
>>> recorded_value("LNPHGAARAEVYLS-NH2 [MLL4Win]")
6.55

----------
biological target: WDR5 S218F (Homo sapiens, UniProt P61964, S218F); assay: Biolayer interferometry (BLI), S218F; type: binding; settings: pH 7.5, read-out: kon (association rate constant)
No end group written: not given here.
Examples of substances with documented kon follow.
Recorded endpoint: kon

>>> recorded_value("VNPTGCARSEPKMS-NH2 [MLL3Win]")
"39000 M⁻¹ s⁻¹"
>>> recorded_value("INPTGCARSEPKIL-NH2 [MLL2Win]")
"40000 M⁻¹ s⁻¹"
>>> recorded_value("LNPHGAARAEVYLS-NH2 [MLL4Win]")
"20000 M⁻¹ s⁻¹"
>>> recorded_value("EHQTGSARSEGYYP-NH2 [SETd1AWin]")
"56000 M⁻¹ s⁻¹"

----------
Examples of substances with documented kon follow.
biological target: WDR5 S175L (Homo sapiens, UniProt P61964, S175L); assay: Biolayer interferometry (BLI), S175L; assay type: binding; conditions: pH 7.5, read-out: kon (association rate constant)
No end group written: not given here.
Recorded endpoint: kon (M⁻¹ s⁻¹)

>>> recorded_value("EHQTGSARSEGYYP-NH2 [SETd1AWin]")
61000
>>> recorded_value("VNPTGCARSEPKMS-NH2 [MLL3Win]")
49000
>>> recorded_value("LNPHGAARAEVYLS-NH2 [MLL4Win]")
30000
>>> recorded_value("INPTGCARSEPKIL-NH2 [MLL2Win]")
49000

----------
molecular target: WDR5 F133L (Homo sapiens, UniProt P61964, F133L); experiment: Biolayer interferometry (BLI), F133L; format: binding
No end group written: not given here.
Examples of substances with documented Kd follow.
Recorded endpoint: Kd (µM)

>>> recorded_value("INPTGCARSEPKIL-NH2 [MLL2Win]")
8.3
>>> recorded_value("EHQTGSARSEGYYP-NH2 [SETd1AWin]")
30
>>> recorded_value("VNPTGCARSEPKMS-NH2 [MLL3Win]")
3.7

----------
molecular target: WDR5 Y260H (Homo sapiens, UniProt P61964, Y260H); assay: Steady-state fluorescence polarization (FP), Y260H; type: binding
pKd: −log10 of the molar value. No end group written: not given here.
Lab note: compare pKd against 7. Equal or greater, write MET. Smaller, write NOT MET.

>>> class_name("INPTGCARSEPKIL-NH2 [MLL2Win]")
"MET"
>>> class_name("VNPTGCARSEPKMS-NH2 [MLL3Win]")
"MET"
>>> class_name("LNPHGSARAEVHLS-NH2 [MLL1Win]")
"NOT MET"

----------
biological target: WDR5 Y260H (Homo sapiens, UniProt P61964, Y260H); assay: Biolayer interferometry (BLI), Y260H; assay type: binding
No end group written: not given here.
Examples of substances with documented Kd follow.
Recorded endpoint: Kd (nM)

>>> recorded_value("INPTGCARSEPKIL-NH2 [MLL2Win]")
200
>>> recorded_value("VNPTGCARSEPKMS-NH2 [MLL3Win]")
110
>>> recorded_value("EHQTGSARSEGYYP-NH2 [SETd1AWin]")
1100

----------
Examples of substances with documented Kd follow.
molecular target: WDR5 S218F (Homo sapiens, UniProt P61964, S218F); experiment: Biolayer interferometry (BLI), S218F; type: binding
No end group written: not given here.
Recorded endpoint: Kd (µM)

>>> recorded_value("VNPTGCARSEPKMS-NH2 [MLL3Win]")
0.53
>>> recorded_value("INPTGCARSEPKIL-NH2 [MLL2Win]")
0.64
>>> recorded_value("EHQTGSARSEGYYP-NH2 [SETd1AWin]")
0.83
>>> recorded_value("LNPHGAARAEVYLS-NH2 [MLL4Win]")
3.4

----------
molecular target: WDR5 Y260H (Homo sapiens, UniProt P61964, Y260H); assay: Biolayer interferometry (BLI), Y260H; type: binding; details: pH 7.5, read-out: kon (association rate constant)
No end group written: not given here.
Recorded endpoint: kon

>>> recorded_value("INPTGCARSEPKIL-NH2 [MLL2Win]")
"66000 M⁻¹ s⁻¹"
>>> recorded_value("VNPTGCARSEPKMS-NH2 [MLL3Win]")
"64000 M⁻¹ s⁻¹"
>>> recorded_value("EHQTGSARSEGYYP-NH2 [SETd1AWin]")
"88000 M⁻¹ s⁻¹"
>>> recorded_value("LNPHGAARAEVYLS-NH2 [MLL4Win]")
"24000 M⁻¹ s⁻¹"

----------
target: WDR5 D172A (Homo sapiens, UniProt P61964, D172A); assay: Steady-state fluorescence polarization (FP), D172A; format: binding
No end group written: not given here.
Recorded endpoint: Kd (nM)

>>> recorded_value("LNPHGAARAEVYLS-NH2 [MLL4Win]")
78
>>> recorded_value("LNPHGSARAEVHLS-NH2 [MLL1Win]")
5600
>>> recorded_value("INPTGCARSEPKIL-NH2 [MLL2Win]")
25
>>> recorded_value("EHQTGSARSEGYYP-NH2 [SETd1AWin]")
61
>>> recorded_value("VNPTGCARSEPKMS-NH2 [MLL3Win]")
12

src = paper PMC9207812
